B1: tRNA (parent)
chain: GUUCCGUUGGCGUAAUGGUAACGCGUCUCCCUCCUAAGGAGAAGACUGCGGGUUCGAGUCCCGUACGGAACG

# Variants of: B1
# assay: yeast fitness relative to wild type (ratio to wild type); higher = fitter; tRNA-Arg(CCU), competitive growth, 37 C, YPD
Variants at the floor of the assay were thinned out.
Please provide measured yeast fitness for the entries that follow.
Give your answer as a number; write no unit.

Bench note: what yeast fitness did GUCCCGUUGGCAUAAUGGUAACGCGUCUCCCUCCUAAGGAGAAGACUCCGGGUUCGAGUCCCGUACGGAACG [U3C G12A G48C] show? 0.558

Bench note: what yeast fitness did GUUCCGUUGGCGUAAUGGUAACGCGUCUCCCUCCUAAGGAGAAGACUGCGGGUUCGAGUCGCGUACUGAACG [C61G G67U] show? 0.61

Bench note: what yeast fitness did GUUCCGUUGGCGUAAUGGUAACGCGUCUCCCUCGUAAGGACAAGACUGUGGGUUCGAGUCCCGUACGGAACG [C34G G41C C49U] show? 0.684

Bench note: what yeast fitness did GUUCCGUUGGCGUAAUGGUAACGCGUCUUCCUCCUAAGGAGAAGACUGCGGGUUCGAGUCUCGUACGGAGCG [C29U C61U A70G] show? 0.728

Bench note: what yeast fitness did GUUCCGUUGCCGUAAUGGAAACGCGUCUCCCUCCUACGGAGAAGACUGCUGGUUCGAGUCCCGUACGGAACG [G10C U19A A37C G50U] show? 0.526

Bench note: what yeast fitness did GUUCCGUUGGCGUAAUGGUAACGGGUCUCCGUCCUAAGGAGAAGACUGCAGGUUCGAGUCCCGUACGGAACG [C24G C31G G50A] show? 0.522

Bench note: what yeast fitness did GUUCCGUUGGCGUAAUGGUAACGCGUAUCCGUCCUAAGGAGAAGACUGCGGGUCCGAGUCCCGUACGGAACG [C27A C31G U54C] show? 0.744

Bench note: what yeast fitness did GUUCCGUUGGCGUUAUGGAACCGCGUCUCCCUCCUAAGGAGAAGACUCCGGGUUCGAGUCCCGUACGGAGCG [A14U U19A A21C G48C A70G] show? 0.505

Bench note: what yeast fitness did GGUCUGUUGGCGUAAUGGUAACGCGUCUCCCUCCUAAGGAGAAGACUGCGGGUUCGAGUCCCGUACGGAACG [U2G C5U] show? 0.877

Bench note: what yeast fitness did GUUCCGUUGGCGUAAUGGUACCGCGAGUCCCUCCUAAGGAGAAGACUGCGGGUUCGAGUCCCGUACGGAACG [A21C U26A C27G] show? 0.581

Bench note: what yeast fitness did GUUUCGUUGGCGUUAUGGUAACGCGUCUCCCUCCUAAGGAGAAGAUUGCGGGUUCGAGUCCCGUACGGAACG [C4U A14U C46U] show? 0.577

Bench note: what yeast fitness did GUUCCGUUGGCGUAAUGGUAACGCGUCUCCCUCCUAAGGAGACGACUGCGGGUUCGAGUCCCGUACGGUACG [A43C A69U] show? 1.12

Bench note: what yeast fitness did GUUCAGUUGGCGUAAAGGUAACGCGUCUCCCUCCUAAGGAGAAGGCUGCAGGUUCGAGUCCCGUACGGAACG [C5A U16A A45G G50A] show? 0.529

Bench note: what yeast fitness did GUUCCGUUGGCGUAAUGGUGACGCGUCUCCCUCCUAAGGACAAGACUGCGGGUUCGAGUCCCGUACGGAUCG [A20G G41C A70U] show? 0.622

Provenance of the data: the RNAGym collection of RNA variant scans (doi:10.1126/science.aae0568)
